Reported MIC for target or system Proteus rettgeri Ret 40, by entry.
Give just the number in µg/mL; leave the unit off.

Task: Tell me the measured MIC of NC[C@H]1O[C@H](O[C@H]2[C@H](O)[C@@H](O[C@H]3O[C@H](CO)[C@@H](O)[C@H](N)[C@H]3O)[C@H](NC(=O)C(O)C3CCNC3)C[C@@H]2N)[C@H](N)C[C@@H]1O (some centres unmarked) , please.
Result: 0.8

Task: Quick one: NC[C@H]1O[C@H](O[C@H]2[C@H](O)[C@@H](O[C@H]3O[C@H](CO)[C@@H](O)[C@H](N)[C@H]3O)[C@H](NC(=O)C(O)C3CCCNC3)C[C@@H]2N)[C@H](N)C[C@@H]1O (some centres unmarked)
Result: 1.6

Task: Quick one: NC[C@H]1O[C@H](O[C@H]2[C@H](O)[C@@H](O[C@H]3O[C@H](CO)[C@@H](O)[C@H](N)[C@H]3O)[C@H](NC(=O)C(O)C3CNC3)C[C@@H]2N)[C@H](N)C[C@@H]1O (some centres unmarked)
Result: 0.4

Task: Quick one: NC[C@H]1O[C@H](O[C@H]2[C@H](O)[C@@H](O[C@H]3O[C@H](CO)[C@@H](O)[C@H](N)[C@H]3O)[C@H](NC(=O)C(O)C3CCN3)C[C@@H]2N)[C@H](N)C[C@@H]1O (some centres unmarked)
Result: 0.8

Task: Quick one: NC[C@H]1O[C@H](O[C@H]2[C@H](O)[C@@H](O[C@H]3O[C@H](CO)[C@@H](O)[C@H](N)[C@H]3O)[C@H](N)C[C@@H]2N)[C@H](N)C[C@@H]1O [TOB, tobramycin, reference compound]
Result: 0.39

###

Test system: Escherichia coli W-677/JR-762
Experiment: MIC, antimicrobial activity
Settings: Escherichia coli, W677/JR762, read-out: Minimum Inhibitory Concentration (MIC), Escherichia coli W-677/JR-762, tobramycin resistant strain
For each record, write down the corresponding MIC.
Give just the number in µg/mL; leave the unit off.

Task: Tell me the measured MIC of NC[C@H]1O[C@H](O[C@H]2[C@H](O)[C@@H](O[C@H]3O[C@H](CO)[C@@H](O)[C@H](N)[C@H]3O)[C@H](NC(=O)C(O)C3CNC3)C[C@@H]2N)[C@H](N)C[C@@H]1O (stereo partly shown) , please.
Result: 1.6

Task: Quick one: NC[C@H]1O[C@H](O[C@H]2[C@H](O)[C@@H](O[C@H]3O[C@H](CO)[C@@H](O)[C@H](N)[C@H]3O)[C@H](NC(=O)C(O)C3CCNC3)C[C@@H]2N)[C@H](N)C[C@@H]1O (stereo partly shown)
Result: 6.2

Task: Quick one: NC[C@H]1O[C@H](O[C@H]2[C@H](O)[C@@H](O[C@H]3O[C@H](CO)[C@@H](O)[C@H](N)[C@H]3O)[C@H](NC(=O)C(O)C3CCN3)C[C@@H]2N)[C@H](N)C[C@@H]1O (stereo partly shown)
Result: 6.2

###

System: Serratia marcescens ATCC 13880
Test: MIC, antimicrobial activity
Details: Serratia marcescens, ATCC13880, read-out: Minimum Inhibitory Concentration (MIC)
For each record, write down the corresponding MIC.
Give just the number in µg/mL; leave the unit off.

Task: Tell me the measured MIC of NC[C@H]1O[C@H](O[C@H]2[C@H](O)[C@@H](O[C@H]3O[C@H](CO)[C@@H](O)[C@H](N)[C@H]3O)[C@H](NC(=O)C(O)C3CCCNC3)C[C@@H]2N)[C@H](N)C[C@@H]1O (stereo partly drawn) , please.
Result: 25

Task: Quick one: NC[C@H]1O[C@H](O[C@H]2[C@H](O)[C@@H](O[C@H]3O[C@H](CO)[C@@H](O)[C@H](N)[C@H]3O)[C@H](NC(=O)C(O)C3CCCN3)C[C@@H]2N)[C@H](N)C[C@@H]1O (stereo partly drawn)
Result: 25

Task: Quick one: NC[C@H]1O[C@H](O[C@H]2[C@H](O)[C@@H](O[C@H]3O[C@H](CO)[C@@H](O)[C@H](N)[C@H]3O)[C@H](NC(=O)C(O)C3CCN3)C[C@@H]2N)[C@H](N)C[C@@H]1O (stereo partly drawn)
Result: 50

###

Test system: Serratia marcescens ATCC 13880
Test: MIC, antimicrobial activity
Conditions: Serratia marcescens, ATCC13880, read-out: Minimum Inhibitory Concentration (MIC)
For each record, write down the corresponding MIC.
Give just the number in µg/mL; leave the unit off.

Task: Tell me the measured MIC of NC[C@H]1O[C@H](O[C@H]2[C@H](O)[C@@H](O[C@H]3O[C@H](CO)[C@@H](O)[C@H](N)[C@H]3O)[C@H](NC(=O)C(O)C3CNCCN3)C[C@@H]2N)[C@H](N)C[C@@H]1O (single isomer, unassigned) [(8)] , please.
Result: 25

Task: Quick one: NC[C@H]1O[C@H](O[C@H]2[C@H](O)[C@@H](O[C@H]3O[C@H](CO)[C@@H](O)[C@H](N)[C@H]3O)[C@H](NC(=O)C(O)C3CNC3)C[C@@H]2N)[C@H](N)C[C@@H]1O (some centres unmarked) [(3)]
Result: 6.2

###

Reported MIC for target or system Proteus mirabilis TB-617, by entry.
Give just the number in µg/mL; leave the unit off.

Task: Tell me the measured MIC of NC[C@H]1O[C@H](O[C@H]2[C@H](O)[C@@H](O[C@H]3O[C@H](CO)[C@@H](O)[C@H](N)[C@H]3O)[C@H](NC(=O)C(O)C3CCCNC3)C[C@@H]2N)[C@H](N)C[C@@H]1O (stereo partly shown) [(4)] , please.
Result: 3.1

Task: Quick one: NC[C@H]1O[C@H](O[C@H]2[C@H](O)[C@@H](O[C@H]3O[C@H](CO)[C@@H](O)[C@H](N)[C@H]3O)[C@H](NC(=O)C(O)C3CCN3)C[C@@H]2N)[C@H](N)C[C@@H]1O (stereo partly shown) [(2)]
Result: 3.1

Task: Quick one: NC[C@H]1O[C@H](O[C@H]2[C@H](O)[C@@H](O[C@H]3O[C@H](CO)[C@@H](O)[C@H](N)[C@H]3O)[C@H](NC(=O)C(O)C3CCNC3)C[C@@H]2N)[C@H](N)C[C@@H]1O (stereo partly shown) [(1)]
Result: 3.1

Task: Quick one: NC[C@H]1O[C@H](O[C@H]2[C@H](O)[C@@H](O[C@H]3O[C@H](CO)[C@@H](O)[C@H](N)[C@H]3O)[C@H](NC(=O)C(O)C3CNC3)C[C@@H]2N)[C@H](N)C[C@@H]1O (stereo partly shown) [(3)]
Result: 0.8

###

For each record, write down the corresponding Minimum Inhibitory Concentration (MIC).
System: Escherichia coli W-677/JR-762
Test: MIC, antimicrobial activity
Conditions: Escherichia coli W-677/JR-762, tobramycin resistant strain
Give just the number in µg/mL; leave the unit off.

Task: Tell me the measured Minimum Inhibitory Concentration (MIC) of NC[C@H]1O[C@H](O[C@H]2[C@H](O)[C@@H](O[C@H]3O[C@H](CO)[C@@H](O)[C@H](N)[C@H]3O)[C@H](NC(=O)C(O)C3CCCN3)C[C@@H]2N)[C@H](N)C[C@@H]1O (some centres unmarked) [(5)] , please.
Result: 25.0

Task: Quick one: NC[C@H]1O[C@H](O[C@H]2[C@H](O)[C@@H](O[C@H]3O[C@H](CO)[C@@H](O)[C@H](N)[C@H]3O)[C@H](NC(=O)C(O)C3CCCN3)C[C@@H]2N)[C@H](N)C[C@@H]1O (some centres unmarked) [(6)]
Result: 3.1

Task: Quick one: NC[C@H]1O[C@H](O[C@H]2[C@H](O)[C@@H](O[C@H]3O[C@H](CO)[C@@H](O)[C@H](N)[C@H]3O)[C@H](NC(=O)C(O)C3CNCCN3)C[C@@H]2N)[C@H](N)C[C@@H]1O (single isomer, unassigned) [(9)]
Result: 25.0

Task: Quick one: NC[C@H]1O[C@H](O[C@H]2[C@H](O)[C@@H](O[C@H]3O[C@H](CO)[C@@H](O)[C@H](N)[C@H]3O)[C@H](NC(=O)C(O)C3CCCN3)C[C@@H]2N)[C@H](N)C[C@@H]1O (some centres unmarked) [(7)]
Result: 100.0

Task: Quick one: NC[C@H]1O[C@H](O[C@H]2[C@H](O)[C@@H](O[C@H]3O[C@H](CO)[C@@H](O)[C@H](N)[C@H]3O)[C@H](NC(=O)C(O)C3CNCCN3)C[C@@H]2N)[C@H](N)C[C@@H]1O (single isomer, unassigned) [(8)]
Result: 3.1

Hey, just so you know, these numbers are from patent US4200628A.
